These entries and their values trace back to ChEMBL document CHEMBL1157833.

Target: UniProt:P08069
Sequence (P08069 31-736 limits assumed): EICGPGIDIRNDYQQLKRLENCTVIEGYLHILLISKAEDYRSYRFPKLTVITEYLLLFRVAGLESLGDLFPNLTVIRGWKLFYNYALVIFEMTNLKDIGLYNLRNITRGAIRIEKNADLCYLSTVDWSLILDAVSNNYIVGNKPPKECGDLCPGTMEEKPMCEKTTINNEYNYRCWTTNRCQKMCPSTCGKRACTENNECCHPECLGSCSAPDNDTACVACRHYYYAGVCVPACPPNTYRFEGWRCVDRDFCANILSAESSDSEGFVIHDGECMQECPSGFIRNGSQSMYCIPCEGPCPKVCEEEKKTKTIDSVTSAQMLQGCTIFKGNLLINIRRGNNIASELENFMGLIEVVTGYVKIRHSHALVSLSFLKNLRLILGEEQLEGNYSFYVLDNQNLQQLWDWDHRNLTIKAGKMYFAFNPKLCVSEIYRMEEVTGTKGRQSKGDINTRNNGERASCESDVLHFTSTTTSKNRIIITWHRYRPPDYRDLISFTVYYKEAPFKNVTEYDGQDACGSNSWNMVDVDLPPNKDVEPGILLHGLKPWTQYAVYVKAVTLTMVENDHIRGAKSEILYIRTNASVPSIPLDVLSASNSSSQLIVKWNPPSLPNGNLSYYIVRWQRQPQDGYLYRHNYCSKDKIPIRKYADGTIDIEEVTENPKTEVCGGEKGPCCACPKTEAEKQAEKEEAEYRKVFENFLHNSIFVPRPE
Sequence (P08069 741-1367 limits assumed): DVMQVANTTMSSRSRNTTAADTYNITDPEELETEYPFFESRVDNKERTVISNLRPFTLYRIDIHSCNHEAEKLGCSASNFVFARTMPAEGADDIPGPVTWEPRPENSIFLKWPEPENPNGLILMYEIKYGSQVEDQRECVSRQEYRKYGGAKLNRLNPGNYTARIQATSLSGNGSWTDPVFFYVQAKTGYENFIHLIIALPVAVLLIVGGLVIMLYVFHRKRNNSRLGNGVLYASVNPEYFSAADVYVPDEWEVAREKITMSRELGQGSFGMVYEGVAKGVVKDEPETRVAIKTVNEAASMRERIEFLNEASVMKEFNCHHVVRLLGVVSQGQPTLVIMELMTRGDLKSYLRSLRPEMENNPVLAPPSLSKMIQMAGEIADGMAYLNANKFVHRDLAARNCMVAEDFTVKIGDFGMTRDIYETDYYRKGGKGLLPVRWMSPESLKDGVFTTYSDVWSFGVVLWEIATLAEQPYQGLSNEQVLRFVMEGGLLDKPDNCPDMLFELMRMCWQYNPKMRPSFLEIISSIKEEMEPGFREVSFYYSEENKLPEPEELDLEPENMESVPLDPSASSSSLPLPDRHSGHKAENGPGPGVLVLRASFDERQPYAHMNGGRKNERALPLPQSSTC
Experiment: Inhibition of IGF1R after 30 mins by chemiluminescence ELISA
We label by threshold. Values of IC50 strictly beneath 1 µM are yes (1). Values of 1 µM and up are no (0).

hey, is IC50 for NCCc1cn(Cc2ccc(-c3cccc(C(F)(F)F)c3)cc2)c2ccc(OCCc3ccc(O)cc3)cc12 lower than 1 µM or not?
no (0)

Also check COc1ccc(-c2ccc(Cn3cc(CCN)c4cc(OCCc5ccc(O)cc5)ccc43)cc2)cc1
no (0)

Also check NC1CCc2c(c3cc(OCCc4ccc(O)cc4)ccc3n2CCCCCc2ccccc2)C1 (configuration not stated)
yes (1)
